Conditions: a range is the spread between reports
METRIC NAME: melting point

Would you please look over these solved cases?
{"MOLECULE": "CN1CCN(C2=Nc3cc(Cl)ccc3Nc3ccccc32)CC1", "melting point": "184 °C"}
{"MOLECULE": "Oc1c(Cl)cccc1Cl", "melting point": "65 to 68.5 °C"}
{"MOLECULE": "CCOC(N)=O", "melting point": "48 to 49 °C"}
{"MOLECULE": "CF", "melting point": "-143 to -142 °C"}

Per the records, this molecule ( `O=C(O)CCC(=O)c1ccccc1` ) has melting point equal to 117 to 118 °C

Given item `CC(C)C(C)(C)C(C)(C)C` , the value recorded as its melting point is -36.4 to -36 °C

`Nc1ccccc1C(=O)O` has a reported melting point of 144 to 147 °C

// melting point value for `O=Cc1cc(O)ccc1O` : 98 to 99 °C

Record summary for `NC(=O)c1ccccc1Cl` : reported melting point = 142 to 143 °C

Query `CCCSSCCC` yields melting point of -86 to -85.6 °C

Data point: `CCCCC(C)(C)C` ; melting point = -121 °C

The measured melting point associated with `C1=CCCCCCC1` reads -16 to -12 °C

Consider `Cc1c(C2(c3cc(C(C)C)c(O)c(Br)c3C)OS(=O)(=O)c3ccccc32)cc(C(C)C)c(O)c1Br` . Its measured melting point is 200 to 201 °C

Kindly note the recorded melting point for `O=C1OC(=O)c2c(Cl)c(Cl)c(Cl)c(Cl)c21` , which is 254 to 256 °C

For `C=CCCl` the molecule record lists melting point as -135 to -134 °C

The recorded melting point for entry `CCOC(=O)c1ccc(OC)c(OC)c1` equals 43.5 to 44 °C

Reported melting point for `Oc1ccccn1` was 107 to 108 °C

The molecule identified as `O=c1c(-c2ccccc2)c1-c1ccccc1` registered its melting point at 119 to 120 °C

Note to self: melting point recorded for `O=C(O)/C=C/c1ccccc1` was 133 to 135 °C

The molecule listed as `C#CCCC(=O)O` shows melting point equal to 56 to 57.7 °C

get_value(item= `O=Cc1cc(Cl)ccc1O` , readout=melting point) returns 100 to 101 °C

What the record says about `CC(=O)c1cccnc1` : melting point is 12 to 13.5 °C

---

Details: a range is the spread between reports
Each record here notes measured melting point.

// worked examples, melting point included
{"MOLECULE": "O=[N+]([O-])c1cc([N+](=O)[O-])c2ccccc2c1O", "ENDPOINT RESULT": "131 to 132 °C"}
{"MOLECULE": "Nc1c(Cl)c(Cl)c(Cl)c(Cl)c1Cl", "ENDPOINT RESULT": "232 to 235 °C"}
{"MOLECULE": "C=Cc1ccc2ccccc2c1", "ENDPOINT RESULT": "65 to 66 °C"}
{"MOLECULE": "ClCCCCCCl", "ENDPOINT RESULT": "-73 to -72 °C"}
{"MOLECULE": "O=C(O)c1cc([N+](=O)[O-])ccc1Cl", "ENDPOINT RESULT": "166 to 167 °C"}

Here is the next item to consider.
So, `CCOC(=O)c1cc2ccccc2[nH]1` ? Its melting point was 124 °C

---

Settings: a range is the spread between reports
Listing of recorded melting point by entry.

{"COMPOUND": "C#CC(C)(C)C", "METRIC NAME": "melting point", "ENDPOINT RESULT": "-78.2 to -78 °C"}
{"COMPOUND": "COc1c(Cl)cc(Cl)cc1Cl", "METRIC NAME": "melting point", "ENDPOINT RESULT": "61 to 61.5 °C"}
{"COMPOUND": "NCCCN1CCN(CCCN)CC1", "METRIC NAME": "melting point", "ENDPOINT RESULT": "14 to 15 °C"}
{"COMPOUND": "O=[N+]([O-])c1cccc2cccnc12", "METRIC NAME": "melting point", "ENDPOINT RESULT": "88 to 90 °C"}

Entry `O=C(Cl)c1ccccc1F` — recorded melting point = 4 to 5 °C

GET /value?item= `O=c1ccc2ccc(O)cc2o1` &field=melting point returns 230 °C

# compound `c1ccc2cc3c(cc2c1)-c1cccc2cccc-3c12` ; its melting point = 216 to 217 °C

# compound `O=C(O)c1ccc(O)cc1` ; its melting point = 214 to 217 °C

---

Details: a range is the spread between reports
METRIC NAME: melting point

{"COMPOUND": "O=C(O)c1cc(Cl)ccc1O", "METRIC NAME": "melting point", "ENDPOINT RESULT": "171 to 174 °C"}

So, `CC(C)c1cccc(C(C)C)c1` ? Its melting point was -63.1 to -63 °C

Summary for this compound, `Oc1c(Br)c(Br)c(Br)c(Br)c1Br` : melting point is 226 to 230 °C

---

Conditions: a range is the spread between reports
Reported melting point by item:

# example entries with known answers
{"COMPOUND": "O=C(O)c1ccccc1-c1ccc(C(F)(F)F)cc1", "METRIC NAME": "melting point", "ENDPOINT RESULT": "169 to 170 °C"}
{"COMPOUND": "C=CC(=O)NC(C)(C)CC(C)=O", "METRIC NAME": "melting point", "ENDPOINT RESULT": "55 to 57.5 °C"}
{"COMPOUND": "O=[N+]([O-])c1ccc(CO)cc1", "METRIC NAME": "melting point", "ENDPOINT RESULT": "94 to 96.5 °C"}
{"COMPOUND": "O=C(C=Cc1ccccc1)c1ccc(Cl)cc1", "METRIC NAME": "melting point", "ENDPOINT RESULT": "96 to 99 °C"}
{"COMPOUND": "Brc1ccccc1", "METRIC NAME": "melting point", "ENDPOINT RESULT": "-31 to -30.6 °C"}

melting point reported for this compound CC12CCC(C(Br)C1=O)C2(C)C (stereo not given) : 76 to 77 °C

Entry `CCOC(=O)c1cc(C)n[nH]1` — recorded melting point = 82 to 87 °C

So for `CC(=O)c1ccc([N+](=O)[O-])cc1` , the logged melting point turned out to be 79 to 81.8 °C

The reported value for `CC(=O)c1ccc(O)c(O)c1O` in terms of melting point is 171 to 173 °C

Lab note: measured melting point of `CCCOC(=O)CC` was -76 to -75.9 °C

Item: `O=[N+]([O-])c1ccccc1F` | melting point: -8 to -6 °C

Entry `NC(=O)c1cccc([N+](=O)[O-])c1` ; melting point = 142 to 143 °C

---

Settings: a range is the spread between reports
Each record here notes measured melting point.

Below, 5 molecules whose answers are already recorded.
{"MOLECULE": "O=C(O)CCCC(=O)O", "melting point": "96.5 to 97.8 °C"}
{"MOLECULE": "C=CCCCCCCCCCCCCC", "melting point": "-4 to -2.8 °C"}
{"MOLECULE": "CCCCCCCCCCCCCCCCCCCCCCCCCCCCCCCCCCCC", "melting point": "76 to 76.5 °C"}
{"MOLECULE": "ClCc1ccc(Cl)cc1", "melting point": "28 to 31 °C"}
{"MOLECULE": "O=C1Cc2ccccc2N1", "melting point": "126 to 128 °C"}

So for CCC(C)C(C)(C)CC (stereo not drawn) , the logged melting point turned out to be -101 °C

melting point measured on `O=C(c1cccs1)c1cccs1` = 89 to 90 °C

The recorded melting point for entry `Cc1ccc(O)c([N+](=O)[O-])c1` equals 34 to 36.5 °C

Reported melting point of `Nc1ccc([N+](=O)[O-])cc1[N+](=O)[O-]` : 176 to 180 °C

// melting point value for `CCCCCCCCCCCCCCCCCC(C)=O` : 55 to 57 °C

The measured melting point associated with `c1c[nH]nn1` reads 23 to 24 °C

response.value for `Cc1ccc(N)cc1` (field: melting point) = 43 to 44 °C

Per the record, `O=[N+]([O-])c1cc(Cl)ccc1O` has melting point of 87 to 89 °C

According to the records, this molecule `CCC(C)(C)O` displays melting point of -12 to -8 °C

---

Details: a range is the spread between reports
METRIC NAME: melting point

Here are 2 compounds together with their reported answers.
{"COMPOUND": "FC(F)(F)F", "melting point": "-184 °C"}
{"COMPOUND": "N#Cc1ccc(Cl)cc1", "melting point": "92 to 95 °C"}

The reported melting point of the compound `C=CCC(=O)O` was -39 to -35 °C

Item: `OCc1cc(Cl)cc(Cl)c1` | melting point: 78 to 80.5 °C

Looking up `CCC(C)=NO` , I found its melting point recorded as -30 to -29.5 °C

Recorded result, `c1ccc2c(c1)CCc1ccccc1-2` , melting point: 34 to 34.5 °C

// recorded melting point for `N#CC(c1ccccc1)c1ccccc1` : 74 to 74.3 °C

The recorded melting point for `c1ccc(-c2nnc(-c3ccccn3)nc2-c2ccccc2)cc1` is 191 to 192 °C
